Listed below: growth values for each entry.
Tested on: OVCAR-8 ovarian
protocolText: NCI-60 one-dose screen, 48 h (100 = growth as untreated, 0 = no growth, -100 = all killed)
recordedConditions: 10 µM
About 83,000 compounds went through this panel and 20% of them were active in at least one assay; those are over-represented in the sample as a whole.
Give the number; % is assumed, so skip it.

Request: Reported growth for [Cl][Hg][c]1ccc(Cl)s1 : what is it?
Result: 60

Request: Given the compound O=C1C=Cc2ccccc2C1=O , what is its reported growth?
Result: 87.9

Request: Returns the measured growth for the input compound. Input: CC(Cc1ccc2c(c1)OCO2)NN (centres undefined)
Result: 97.7

====

Test system: NCI-H460 lung
protocolText: NCI-60 one-dose screen, 48 h (100 = growth as untreated, 0 = no growth, -100 = all killed)
recordedConditions: 10 µM
The panel holds about 83,000 compounds, 20% with a hit somewhere; the sample as a whole holds those more often.
metricName: growth (%)
Give just the number in %; leave the unit off.

Field: example entries. Status: answers known.
compound	target	growth, %
O=C1C(=O)c2ccccc2-c2ccccc21	NCI-H460 lung	3.18
NNc1ccccc1	NCI-H460 lung	60.4
Oc1c(I)cc(I)cc1I	NCI-H460 lung	105
CC(=O)[O][Hg][c]1c(C)c(C)cc(C)c1C	NCI-H460 lung	-16.7
O=C1C=Cc2ccccc2C1=O	NCI-H460 lung	78.7
CC(=O)Nc1c2sscc-2n(C)c1=O	NCI-H460 lung	-77.4

Request: Consider the compound shown here: ClCc1ccc2ccccc2n1 What is its recorded growth?
Result: 110

Request: Requested read-out: growth. Entry: Oc1ccccc1-c1ccccc1
Result: 104

Request: # input compound: COS(=O)(=O)c1ccccc1 ; wanted: its growth
Result: 112

Request: Would you mind telling me what growth value was observed for CC1CCC2(OC1)OC1C(O)C3C4CCC5CC(OC6OC(CO)C(OC7OC(CO)C(O)C(OC8OCC(O)C(O)C8O)C7OC7OC(CO)C(O)C(OC8OC(CO)C(O)C(O)C8O)C7O)C(O)C6O)C(O)CC5(C)C4CCC3(C)C1C2C (configuration not stated) ?
Result: 5.81

Request: Recorded growth of CC(C)c1cc([N+](=O)[O-])cc([N+](=O)[O-])c1O , please.
Result: 105

Request: Need growth, item COc1cc(/C=C/[N+](=O)[O-])cc(OC)c1OC
Result: 6.31

====

System: MCF7 breast
protocolText: NCI-60 one-dose screen, 48 h
recordedConditions: 10 µM unless noted
The panel holds about 83,000 compounds, 20% with a hit somewhere; the sample as a whole holds those more often. Activity calls are given as the source filed them. How the source made its calls: active means growth percent below 10; inactive means the rest.
Please answer using one outcome listed in active, inactive

compound	target	category
Oc1c(Cl)cc(Cl)c2ccccc12.[Cu+2]	MCF7 breast	inactive
C[C@@H]1C[C@@H]([C@H](O)CC2CC(=O)NC(=O)C2)C(=O)[C@@H](C)C1	MCF7 breast	active
[Cl][Hg][c]1ccc(Cl)s1	MCF7 breast	active
COC(=O)C1C(O)C(C)C(O)C(C)/C=C\C=C(C)C(=O)Nc2c(C)c(OC(C)=O)c3c(c2O)C(=O)C(C)=C2OCOC(=C23)C(C)=CC(C)(O)C(O)C(C)C1O (configuration not stated)	MCF7 breast	inactive
CC12OOC(c3ccccc31)c1c2ccc2ccccc12 (configuration not stated)	MCF7 breast	inactive

Request: Write down the call the test reported for this compound. Item: O=C(CBr)Nc1ccc(Cl)cc1
Result: inactive

Request: Record request — test call for NC(=O)c1cc([N+](=O)[O-])c(Cl)c([N+](=O)[O-])c1Cl
Result: active

Request: What did this assay record as the result for NC(=O)c1cc([N+](=O)[O-])c(Cl)c([N+](=O)[O-])c1 ?
Result: inactive

Request: Please indicate how the test categorized CC(C)c1cc([N+](=O)[O-])cc([N+](=O)[O-])c1O .
Result: inactive

Request: Check the results log: what was the call for COc1ccc(/C=C(\C)[N+](=O)[O-])cc1OC ?
Result: active
